Test system: MS2 coat protein
Assay: apparent KD of MS2 coat protein; designed switch direction (-1 OFF switch, 1 ON switch): -1; higher = weaker reporter binding
Conditions: input ligand: FMN 200 uM
I'd be grateful if you could share measured apparent KD of MS2 coat protein for these entries.
Express it in nM; write the number only.

Request: apparent KD of MS2 coat protein, test system MS2 coat protein, entry ACAUGUUAUCCAUGAUAUCACAUGAGGAUCACCCAUGUUAUGGCGAUUUUGAGGUGUAAGCUUUGUGCUCGACUUAU [JR_STOV1_Sub056] (Eterna round: R97, puzzle: Sensor, turn-off variant 1)
45

Request: apparent KD of MS2 coat protein, test system MS2 coat protein, entry GCCCGGCGUGUAGGAUAUGGUUCCGUUUCGGUUCCAGAAGGACAUGAGGAUACAUGAGGAUCACCCAUGUGGUCGUCACCGGGC [salish99_ExNG1_r04_402] (Eterna round: R96, puzzle: Exclusion NG 1)
37.4

Request: apparent KD of MS2 coat protein, test system MS2 coat protein, entry UUUGCAAGCUAAAGAUCCCACAUGAGGAUCACCCAUGUUGCUGCCGUGAGGUAGCUUUUAACUUUUGCUCGUCUUAU [JL TOV1 3.44] (Eterna round: R97, puzzle: Sensor, turn-off variant 1)
183

Request: apparent KD of MS2 coat protein, test system MS2 coat protein, entry UUUGUCUGUGUGAGGAUAUACUUGUUUGGGUUUUUGUAGAAGGCACAUGAGGAUCACCCAUGUAUUUUGUCGUG [JR_BME4_Sub018] (Eterna round: R96, puzzle: Brourd's mod of Exclusion 4)
77.7

Request: apparent KD of MS2 coat protein, test system MS2 coat protein, entry AUAAUGUGAGGAUAUCAGUCGUACAGCUGCGGCUGUACGACUGAGAAGGCACAUGAGGAUCACCCAUGUGGUCA [E4/5-A3] (Eterna round: R97, puzzle: Exclusion 4)
70.7

Request: apparent KD of MS2 coat protein, test system MS2 coat protein, entry CUUUUGUGAGGAUAUUAGUAGUAAAUAAUUAAAAUUAUUACUGAGAAGGCACAUGAGGAUCACCCAUGUUCCUC [Salish 062 v15] (Eterna round: R97, puzzle: Exclusion 4)
752

Request: apparent KD of MS2 coat protein, test system MS2 coat protein, entry UUUCGUGCGCGGGUUUUUUACAUGAGGAUCACCCAUGUCCUCUGCUUGUCUUGUCUUGGGCUUUUUUUGGGUUCGGG [-19.7, -39 kcal, A 8%] (Eterna round: R97, puzzle: Sensor, turn-off variant 1)
771

Request: apparent KD of MS2 coat protein, test system MS2 coat protein, entry AUUGUUUGAUACCUCUAAUACAUGAGGAUCACCCAUGUUAUCGAGGAUAUGCAGAAGAGAGGAGAGCAGAAGGCGAAGUAAGAG [JR_ExcNG3_Sub027] (Eterna round: R96, puzzle: Exclusion NG 3)
21.5

Request: apparent KD of MS2 coat protein, test system MS2 coat protein, entry ACAUGAGGAUCACCCAUGUAAUGAAGGGUACUAUAUUAAACGUAGGAUAUCGAUGUAAGUUUGUUCGAGAAGGACGAUUGCCUU [JR_ExcNG3_Sub053] (Eterna round: R96, puzzle: Exclusion NG 3)
28.1

----------
System: MS2 coat protein
Test: apparent KD of MS2 coat protein; designed switch direction (-1 OFF switch, 1 ON switch): 1; higher = weaker reporter binding
Settings: input ligand: FMN 200 uM
MEASUREMENT KIND: apparent KD of MS2 coat protein
Note: a bare number is incomplete; add the unit.

Look at this sequence and give its reported apparent KD of MS2 coat protein. UUAAUUAAUUAAUUAUACAUGAGGAUCACCCAUGUAAGUGAUCAGGAUAUCAGCUCGUUUAGAGCUGAGAAGGGAUCCAUGUAA [SSNG3/14-A3] (Eterna round: R96, puzzle: Same State NG 3)
85.7 nM

Look at this sequence and give its reported apparent KD of MS2 coat protein. GGUAAGAAUUAAGGAUAUCGAGUACAUAUGUUUAACAUGAGGAUCACCCAUGUGGGUUGCGGUAUCGAGAAGGUAAAAUAUAAG [Mat - same State NG 2 - JL mod - D64] (Eterna round: R96, puzzle: Same State NG 2)
51.8 nM

Look at this sequence and give its reported apparent KD of MS2 coat protein. GCCAUCGUAUGAGGAUAUGGCACCGUUUCGGUGCCAGAAGGCAUGUCAAUUGACAUGAGGAUCACCCAUGUAUUAUCGAUGGCA [JL Fiskers NG1ss - 33 mod 6] (Eterna round: R96, puzzle: Same State NG 1)
99.8 nM

Look at this sequence and give its reported apparent KD of MS2 coat protein. UUGGUUGUCGUAGGAUAUGUAGGAUAUGCCUACAUGAGGAUCACCCAUGUUCGCAUGGCAGAAGGACAGAAGGACGAUGACCAU [pwkr ssNG2 2FMN + 1F5.19] (Eterna round: R96, puzzle: Same State NG 2)
13 nM

----------
System: MS2 coat protein
Assay: apparent KD of MS2 coat protein; designed switch direction (-1 OFF switch, 1 ON switch): -1; higher = weaker reporter binding
Conditions: Eterna round: R95; input ligand: microRNA oligo, concentration not stated
I'd be grateful if you could share measured apparent KD of MS2 coat protein for these entries.
Express it in nM; write the number only.

Request: apparent KD of MS2 coat protein, test system MS2 coat protein, entry GCGUAUGAGCAGGAUAUCCGACGGGAAUCCAAAGGAGAAGGGCUCACAUGAGGAUCACCCAUGUGGUCCAAAAC [Agediat] (puzzle: Exclusion 6)
24

Request: apparent KD of MS2 coat protein, test system MS2 coat protein, entry CUUUUGUGAGGAUAUUAGUAGUAAAUAAAUAAAAUUACUACUGAGAAGGCACAUGAGGAUCACCCAUGUUCCUU [salish99_ex4_r3_067] (puzzle: Exclusion 4)
14

Request: apparent KD of MS2 coat protein, test system MS2 coat protein, entry CUGGUCCGAGGAUAUAUUAAGUGAAACAUGAGGAUCACCCAUGUUAUUUGAUGGAUGUAAAUAGAAGGCGGACUAG [JL-ex5-3.13] (puzzle: Exclusion 5)
33.1

Request: apparent KD of MS2 coat protein, test system MS2 coat protein, entry AGUACUAACAGCUGACUGUUAGUACUGUAGGUUUGUGUUACAUGAGGAUCACCCAUGUCCUCAUAGGCUCGUCUUGU [Mat - Sensor v3 - Turn-off var 2 - D97] (puzzle: Sensor v3, turn-off variant 2)
100

Request: apparent KD of MS2 coat protein, test system MS2 coat protein, entry AAGUACCGUCACGAUAGUGAUGGUACAACAAGCAAGUGAACAUGAGGAUCACCCAUGUCCUCAAUUGCUCGUCUUAU [Sensor 3 - 71] (puzzle: Sensor v3, turn-off variant 2)
62.1

Request: apparent KD of MS2 coat protein, test system MS2 coat protein, entry CCGCAAAUGAAGGAUAUCGUAUCGGAUACGAUACGAGAAGGUCGAACAUGAGGAUCACCCAUGUGUCCUAGCGG [Fiskers Ex 6 - 41] (puzzle: Exclusion 6)
11.2

Request: apparent KD of MS2 coat protein, test system MS2 coat protein, entry ACAGCGUGAGGAUAUACAUGAGGAUCACCCAUGUAUGGCAGGUUAUCCUGUCGUAAGUGUAGAAGGCACGCUGU [Exclusion 3 - Oddities v.4 ( A small slide from ms2 to fmn)] (puzzle: Exclusion 3)
18.8

Request: apparent KD of MS2 coat protein, test system MS2 coat protein, entry GAAAAGGUAGGAUAUACGAAAAGAAAGGGUAGAAAAAAAACACAUGAGGAUCACCCAUGUAGAAGGACCAAAAG [salish99_ex2_r3_027] (puzzle: Exclusion 2)
26.9

Request: apparent KD of MS2 coat protein, test system MS2 coat protein, entry UAUUAGCAAGCAGGAUCCCACAUGAGGAUCACCCAUGUGCUCGUCUUAUAAGGUACUGUGACGAAAGUCACGGUACC [Sensor 3, v1 - 90] (puzzle: Sensor v3, turn-off variant 1)
186

Request: apparent KD of MS2 coat protein, test system MS2 coat protein, entry CAUGAUCUUCGGAAAAUGUACAUGAGGAUCACCCAUGUGACGAGUUACAUGAAAAACAAGCUUUUUGCUCGUCUUAU [Sensor v3 - Turn-off variant 1 - 10] (puzzle: Sensor v3, turn-off variant 1)
288

----------
I'd be grateful if you could share measured apparent KD of K4 kissing-loop reporter for these entries.
Test system: K4 kissing-loop RNA reporter;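 note: bound reporter read as fluorescence of individual clusters on recovered sequencing chips by microscopy, with normalized cluster intensities fitted with a binding model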
Experiment: apparent KD of K4 kissing-loop reporter; higher = weaker reporter binding
Conditions: Eterna round: R107; input ligand: arginine 13.2 mM
Express it in nM; write the number only.

Look at this sequence and give its reported apparent KD of K4 kissing-loop reporter. GUUUGGCGGACGGCCGCCACUCGGACGAGUCACAGUGAUGUUGUGGUUUGCCAGUCGACUUCAUCGAGGACCGGGUUUGUCGGGC [Exclusion Tryptophan B GF 20]
276

Look at this sequence and give its reported apparent KD of K4 kissing-loop reporter. GUUACGCAUGGAAGGAGCGCGAUAAUAUUAAGUGAGUGAUGUUCACAAAGAAAAUAAAUAACGCAGGUAGGUCGCCAUGUGUAAC [Ex Arginine B K4 4]
93.1

Look at this sequence and give its reported apparent KD of K4 kissing-loop reporter. UGCAUCGUUGGCAGGCGCACCACACAGUGUAAGGAUAUGAUGUCGUUCAGAAGGUACGCUUGACCGAGUGAUGUUCGGGAGUGCC [theeternabot_sameState_KL_FMN_A_9]
200

Look at this sequence and give its reported apparent KD of K4 kissing-loop reporter. GUACCUUGGAAACAAGGACAGCUAACCGAAGGAGCGCGUGAAAACGCAGGUAGGUCGCGGUAGCGGAGUGAUGUUCCGCGAGAGC [Same State Arginine A GF 19]
85.8

Look at this sequence and give its reported apparent KD of K4 kissing-loop reporter. UGUGGAGGAUAUGAUACCAGCAGUGAGAGAGAGGAAGUAUAGUGAUGUUAUAUGAGAGAAUGCCCUUGGCAGCGUGUGUAGUAGG [SSTheophylB.J]
165

Look at this sequence and give its reported apparent KD of K4 kissing-loop reporter. AAGGGCUAGGCGGCCGCCACUGGUCGUGUACACAUACGAACCAGUGAUGUUGGUAUUGUAUGCGGCAGGACCGGGCCUAGCCGAA [Exclusion - Tryptophan B (Freestyle 26)]
447

Look at this sequence and give its reported apparent KD of K4 kissing-loop reporter. AGCGAGAUACUUGUCUAGUAUACUACAGAUACCAGACAAGUACUAGUCCCUUGGCAGCUGUAGAUCGAGUGAUGUUCGAGUCGCU [Theo A SS t1]
415

Look at this sequence and give its reported apparent KD of K4 kissing-loop reporter. AUCACAGUGAUGUUGUGAUAUGGUACAGAUACCAGACUAGUGCUAGUCCCUUGGCAGCUGUACUCAGCAGCACCACUAGCACUCG [Theo A Ex t6b]
131

Look at this sequence and give its reported apparent KD of K4 kissing-loop reporter. GUAUCGCUAGGAGGAUAUUCCGUUUUUCAUAGAAAUGGCUAUGCGGAGUGAUGUUCCGAUUUACCGGAAGAAGGCCUAGUGAUAC [FMN B 23]
132

Look at this sequence and give its reported apparent KD of K4 kissing-loop reporter. UUGUGCAGCAAACGAGUGAUGUUCGACGAUACCAGCCUCGAUAGAGGCCCUUGGCAGCGUAAUAAUCACAGCCAAGGGCUGCACU [#SwitchBubble 4]
535

Look at this sequence and give its reported apparent KD of K4 kissing-loop reporter. UUACGAGUGAUGUUCGAAUAAAUCCAUUCAGAGGAUAUAGUAUUAACUAGAAGGCUGAAACCAACUUCGAGUGAUGUUCGAGGAU [Same State FMN A GF 3]
87.7

Look at this sequence and give its reported apparent KD of K4 kissing-loop reporter. GCCUAGCAGGGAAGGAGCGCCAUAUAAUUAAAAGGUAAUUAAUGAGUGAUGUUCAAAUAAUGGCAGGUAGGUCGCCCUGCUAGGC [KL-SSArg B10]
277

Look at this sequence and give its reported apparent KD of K4 kissing-loop reporter. UUUUAUUAAUUCUUCUAGUGAUGUUAGAUACGAGGACCGGUACGGCCGCCACUCGCUUAUUGGUUUAUAUAUUUUAUAUUCUUUA [JR_SSTryptoA_Sub015]
319

Look at this sequence and give its reported apparent KD of K4 kissing-loop reporter. UCCUGCAAUCUGCCACGAAAGUGGAUUGAUACCAGAGUCGAAAGACUCCCUUGGCAGCGAGUGAUGUUCGACGCAGGUAAAUAAA [MatMod 5 - Jieux - Exclusion - Theophylline A]
224

Look at this sequence and give its reported apparent KD of K4 kissing-loop reporter. CGAGUGAUGUUCGAAGAGUUGUUAAGCGAUACCAGCUAGGAAACUGGCCCUUGGCAGCGUAAUAAGUAAAUAAAUAAAUGAUCAC [whbob_Ex_Theo_A_th63]
399

Look at this sequence and give its reported apparent KD of K4 kissing-loop reporter. ACGACGCAUAGUGAUACCAGCACAAUAUGAGUGAUGUUCAACAUAUAAAUGUAAUAAUUAUGCCCUUGGCAGCACUAUGCGUCAG [KL-SSTheoB1]
660

Look at this sequence and give its reported apparent KD of K4 kissing-loop reporter. UCUGGAGGAUAUGAUACCAGCAGUGAGAGAGAGGAAGUAUAGUGAUGUUAUAUGAGAGAAUGCCCUUGGCAGCGUGUGUAGUGGG [SSTheophylB.L]
137

Look at this sequence and give its reported apparent KD of K4 kissing-loop reporter. UGGACCUGACUCGAUAAGAGUCAAUGGGAUACCAGCCACGAAAGUGGCCCUUGGCAGCUCUACCAGUGAUGUUGGUCAAGGUCCU [#SwitchBubble 8 #StaticStem]
511

Look at this sequence and give its reported apparent KD of K4 kissing-loop reporter. UGAUGUUUAGGUCACCCAGUGAUGUUGGAAGGAGCGUGCGAAAGCACAGGUAGGUCGCCAACCUAAAAGUGACCUGAGCAUCUAA [#SwitchBubble 8 #K4Early]
210

Look at this sequence and give its reported apparent KD of K4 kissing-loop reporter. UGAGGAGAUUAUGAUACCAGCAGAGAGAGAGAGGAAGUAUAGUGAUGUUAUAUGAGAUAAUGCCCUUGGCAGCAUAAGAAGAAGG [#20 K4 Theophylline B Same State]
133

Look at this sequence and give its reported apparent KD of K4 kissing-loop reporter. UGAUACCAGACUGAUACCAGCUAGUGAUGUUAGCUGAAAUCAGGGUCAAAGACCCUGUCUGGCCCUUGGCAGCAGUCUGGUAUCU [TheoBX 18 #SwitchBubble #StaticStem]
72.3

Look at this sequence and give its reported apparent KD of K4 kissing-loop reporter. UGAUAGGACAGAAGGAGCGGAAGUGAUGUUUCCAAAAGAUAUGGUCGACAAAGUCGACUUUUCCAGGUAGGUCGCUGUCCUAUCU [KL-XARG-B18]
90.1

Look at this sequence and give its reported apparent KD of K4 kissing-loop reporter. AUAUUGGUUGAGAGUGAUGUUCCUUGUGUUCGAGGACCGGUACGGCCGCCACUCGGGUAGAAAAUAAAAGAUAUGUUUGAUUUUU [BDazzled - #12 SS Tryptophan A]
29.1
